Molecular target: P. falciparum apicoplast DNA polymerase (Pf-apPOL) (Plasmodium falciparum, UniProt Q8ILY1)
Sequence (Q8ILY1 entry or part of it): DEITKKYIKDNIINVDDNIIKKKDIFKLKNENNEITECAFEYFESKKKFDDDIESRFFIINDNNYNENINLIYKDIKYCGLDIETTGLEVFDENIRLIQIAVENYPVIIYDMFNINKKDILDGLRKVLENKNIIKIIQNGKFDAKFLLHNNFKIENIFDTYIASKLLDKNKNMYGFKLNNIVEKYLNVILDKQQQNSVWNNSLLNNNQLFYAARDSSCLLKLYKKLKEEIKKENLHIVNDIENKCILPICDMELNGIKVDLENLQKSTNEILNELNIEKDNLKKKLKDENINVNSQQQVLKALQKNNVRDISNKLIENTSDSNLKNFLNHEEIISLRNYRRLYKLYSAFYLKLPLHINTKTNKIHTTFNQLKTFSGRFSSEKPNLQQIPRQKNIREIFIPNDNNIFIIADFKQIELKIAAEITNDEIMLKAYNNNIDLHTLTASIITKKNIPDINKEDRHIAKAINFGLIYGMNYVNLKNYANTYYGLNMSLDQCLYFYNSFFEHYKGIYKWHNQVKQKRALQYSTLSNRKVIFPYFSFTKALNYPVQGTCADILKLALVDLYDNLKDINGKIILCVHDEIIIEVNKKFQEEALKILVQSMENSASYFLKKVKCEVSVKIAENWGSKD
Assay: Fluorescence-based high-throughput DNA polymerase assay (molecular beacon), primary screen and dose-response
Type: biochemical
Settings: DRC-2; read at 40'; concentration 2.5
% inhibition Apol 40' 2.5 for assorted compounds
Note: unit % is implicit; provide only the numeric part.

Reference set, count: 10
[[record]]
compound = "CC(C)CC(C(=O)O)N1C(=O)C2C3C=CC(C2C1=O)C1C(=O)N(C(CC(C)C)C(=O)O)C(=O)C31 (centres unmarked)"
system = "P. falciparum apicoplast DNA polymerase (Pf-apPOL) (Plasmodium falciparum, UniProt Q8ILY1)"
test_result = -0.315

[[record]]
compound = "N#Cc1c(O)nc(N2CCCCC2)nc1-c1ccc2c(c1)OCO2"
system = "P. falciparum apicoplast DNA polymerase (Pf-apPOL) (Plasmodium falciparum, UniProt Q8ILY1)"
test_result = 13

[[record]]
compound = "COc1ccc(C2CC(c3ccc(Cl)cc3Cl)Nc3nc(N)nn32)cc1OC (centres unmarked)"
system = "P. falciparum apicoplast DNA polymerase (Pf-apPOL) (Plasmodium falciparum, UniProt Q8ILY1)"
test_result = 26

[[record]]
compound = "Cc1cccc(-c2noc(C(=O)NNC(=O)C(Cl)(Cl)Cl)n2)c1"
system = "P. falciparum apicoplast DNA polymerase (Pf-apPOL) (Plasmodium falciparum, UniProt Q8ILY1)"
test_result = 4.33

[[record]]
compound = "Cc1cc2[nH]c(C(=O)Nc3ccc(F)cc3)c(CN3CCOCC3)c2s1"
system = "P. falciparum apicoplast DNA polymerase (Pf-apPOL) (Plasmodium falciparum, UniProt Q8ILY1)"
test_result = 0.384

[[record]]
compound = "Cc1ccsc1Cn1c(C)ccc1C"
system = "P. falciparum apicoplast DNA polymerase (Pf-apPOL) (Plasmodium falciparum, UniProt Q8ILY1)"
test_result = -1.81

[[record]]
compound = "CC(=O)Nc1cc(C(=O)c2cccs2)nn(-c2ccc(Cl)cc2)c1=O"
system = "P. falciparum apicoplast DNA polymerase (Pf-apPOL) (Plasmodium falciparum, UniProt Q8ILY1)"
test_result = 4.64

[[record]]
compound = "Cc1nc(C)c2c(n1)N(CC1CCCCC1)C(=O)CC2"
system = "P. falciparum apicoplast DNA polymerase (Pf-apPOL) (Plasmodium falciparum, UniProt Q8ILY1)"
test_result = 24

[[record]]
compound = "CCCc1ccc(Oc2coc3cc(OC)ccc3c2=O)cc1"
system = "P. falciparum apicoplast DNA polymerase (Pf-apPOL) (Plasmodium falciparum, UniProt Q8ILY1)"
test_result = 6.51

[[record]]
compound = "CC(=O)OCC1=C(C(=O)[O-])N2C(=O)[C@@H](NC(=O)Cc3cccs3)[C@H]2SC1.[Na+]"
system = "P. falciparum apicoplast DNA polymerase (Pf-apPOL) (Plasmodium falciparum, UniProt Q8ILY1)"
test_result = 1.25


Give % inhibition Apol 40' 2.5 only, for C#CC(C=CC)OC(=O)c1ccccc1C(=O)O (centres unmarked) , using P. falciparum apicoplast DNA polymerase (Pf-apPOL) (Plasmodium falciparum, UniProt Q8ILY1) data. 3

Please look at `Cn1nc(-c2nc(-c3ccccc3)no2)c2c1CCN(C(=O)Cc1cccs1)C2` and tell me its recorded % inhibition Apol 40' 2.5 on P. falciparum apicoplast DNA polymerase (Pf-apPOL) (Plasmodium falciparum, UniProt Q8ILY1). 9

Identify measured % inhibition Apol 40' 2.5 obtained with P. falciparum apicoplast DNA polymerase (Pf-apPOL) (Plasmodium falciparum, UniProt Q8ILY1) for `COc1ccccc1CC(=O)N1CCc2c(nc3cc(-c4ccccc4Cl)[nH]n3c2=O)C1` . 3.38

Give reported % inhibition Apol 40' 2.5 for `Nc1cc(Oc2ccc(O)c(N)c2)ccc1O` (P. falciparum apicoplast DNA polymerase (Pf-apPOL) (Plasmodium falciparum, UniProt Q8ILY1)) 47
